- target-desc: BRG-1 (Homo sapiens, UniProt P51532)
- Construct: made in house; host or cells: High Five insect cells
- Sequence (P51532 whole entry): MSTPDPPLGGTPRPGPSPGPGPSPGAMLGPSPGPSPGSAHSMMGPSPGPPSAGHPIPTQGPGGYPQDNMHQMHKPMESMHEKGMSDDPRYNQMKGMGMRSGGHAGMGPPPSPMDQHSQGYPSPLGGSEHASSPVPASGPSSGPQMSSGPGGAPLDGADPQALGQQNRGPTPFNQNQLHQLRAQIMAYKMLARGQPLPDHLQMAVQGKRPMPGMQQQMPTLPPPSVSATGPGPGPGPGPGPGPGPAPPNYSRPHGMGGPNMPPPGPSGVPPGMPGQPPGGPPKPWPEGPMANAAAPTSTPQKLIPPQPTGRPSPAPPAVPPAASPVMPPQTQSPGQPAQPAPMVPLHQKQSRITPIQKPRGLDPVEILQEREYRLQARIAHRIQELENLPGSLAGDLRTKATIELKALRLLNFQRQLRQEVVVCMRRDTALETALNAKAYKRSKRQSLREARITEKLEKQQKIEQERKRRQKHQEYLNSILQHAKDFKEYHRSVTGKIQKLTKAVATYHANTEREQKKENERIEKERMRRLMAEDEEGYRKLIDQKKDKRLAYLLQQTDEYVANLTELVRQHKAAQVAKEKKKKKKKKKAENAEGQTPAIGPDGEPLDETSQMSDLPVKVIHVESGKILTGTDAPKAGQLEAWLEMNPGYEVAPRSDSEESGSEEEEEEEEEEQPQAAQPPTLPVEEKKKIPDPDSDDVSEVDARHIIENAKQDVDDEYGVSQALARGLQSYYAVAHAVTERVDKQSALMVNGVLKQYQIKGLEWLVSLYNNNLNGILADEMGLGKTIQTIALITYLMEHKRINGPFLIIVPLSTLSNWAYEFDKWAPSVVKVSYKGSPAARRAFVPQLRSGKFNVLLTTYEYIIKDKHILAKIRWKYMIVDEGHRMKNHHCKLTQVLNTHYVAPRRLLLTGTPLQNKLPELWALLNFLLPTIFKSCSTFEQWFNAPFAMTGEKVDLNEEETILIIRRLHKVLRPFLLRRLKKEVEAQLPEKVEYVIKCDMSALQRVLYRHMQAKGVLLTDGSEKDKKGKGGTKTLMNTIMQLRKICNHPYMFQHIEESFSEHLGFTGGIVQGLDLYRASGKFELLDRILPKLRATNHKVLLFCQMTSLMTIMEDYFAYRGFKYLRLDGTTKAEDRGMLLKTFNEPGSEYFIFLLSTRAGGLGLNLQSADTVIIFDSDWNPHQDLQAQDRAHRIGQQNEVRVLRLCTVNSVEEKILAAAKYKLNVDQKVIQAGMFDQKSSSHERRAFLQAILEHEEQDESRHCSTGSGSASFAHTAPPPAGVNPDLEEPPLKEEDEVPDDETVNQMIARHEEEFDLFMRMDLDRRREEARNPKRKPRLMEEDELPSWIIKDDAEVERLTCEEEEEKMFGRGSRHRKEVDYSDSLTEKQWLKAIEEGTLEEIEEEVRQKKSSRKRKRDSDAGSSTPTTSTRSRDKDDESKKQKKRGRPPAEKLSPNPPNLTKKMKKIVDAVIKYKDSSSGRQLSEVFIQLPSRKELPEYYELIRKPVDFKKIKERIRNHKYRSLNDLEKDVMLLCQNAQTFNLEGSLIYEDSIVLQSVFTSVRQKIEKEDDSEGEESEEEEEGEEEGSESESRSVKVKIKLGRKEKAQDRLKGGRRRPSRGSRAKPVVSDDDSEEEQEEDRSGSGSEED
- protocol: ATPase catalytic activity of BRG-1, ADP-Glo in vitro biochemical assay
- test-context: ADP-Glo ATPase assay, 30 nM BRG-1, 400 μM ATP; read-out: BRG1 IC50
pIC50: −log10 of the molar value.
pIC50 values, listed per item

| structure-string | pIC50 |
| --- | --- |
| CN(C)S(=O)(=O)c1cc(C(=O)NCc2cc3nc(-c4cncc(C5CC5)n4)ccc3cn2)ccc1Cl | 5.46 |
| CO[C@H]1C[C@H](c2cccc(-c3ccc4cnc(CNC(=O)c5ccc6c(c5)S(=O)(=O)CCOC6)cc4n3)n2)C1 | 6.18 |
| O=C(NCc1cc2nc(-c3cccc(N4CCC(F)(F)CC4)n3)ccc2cn1)c1ccc2c(c1)S(=O)(=O)CCOC2 | 6.11 |
| C[C@@H]1CN(c2cccc(-c3ccc4cnc(CNC(=O)c5ccc6c(c5)S(=O)(=O)CCOC6)cc4n3)n2)C[C@H](C)O1 | 7.71 |
| COCCN1CCOc2c(-c3ccc4cnc(CNC(=O)c5ccc6c(c5)S(=O)(=O)CCOC6)cc4n3)cccc21 | 6.98 |
| COc1c(F)cnc2c1CCCN2c1ccc2cnc(CNC(=O)c3ccc4c(c3)S(=O)(=O)CCOC4)cc2n1 | 7.17 |
| COc1cc(C)nc2c1CCCN2c1ccc2cnc(CNC(=O)c3ccc4c(c3)S(=O)(=O)CCOC4)cc2n1 | 7.03 |
| CCc1cc(C(=O)NCc2cc3nc(-c4cccc(N5C[C@@H](C)O[C@@H](C)C5)n4)ccc3cn2)cc2c1COCCS2(=O)=O | 6.11 |
| [2H]C1([2H])OC([2H])([2H])C([2H])([2H])S(=O)(=O)c2cc(C(=O)NCc3cc4nc(N5CCOc6ccc(C(F)F)nc65)ccc4cn3)ccc21 | 6.31 |
| CS(=O)(=O)c1cc(C(=O)NCc2cc3nc(-c4cccc(N5CC[C@@H]6OCC[C@H]6C5)n4)ccc3cn2)ccc1C(F)F | 6.54 |
| O=C(NCc1cc2nc(N3CCOc4cc(F)c(C5CC5)nc43)ccc2cn1)c1ccc2c(c1)S(=O)(=O)CCOC2 | 5.64 |
| COc1ccc(F)c2c1CCCN2c1ccc2cnc(CNC(=O)c3ccc4c(c3)S(=O)(=O)CCOC4)cc2n1 | 7.00 |
| O=C(NCc1cc2nc(-c3cccc(F)n3)ccc2cn1)c1ccc2c(c1)S(=O)(=O)CCOC2 | 5.33 |
| CO[C@H]1CCN(c2cccc(-c3ccc4cnc(CNC(=O)c5ccc6c(c5)S(=O)(=O)CCOC6)cc4n3)n2)C1 | 6.75 |
| C[C@@H]1COC[C@H](C)N1c1cccc(-c2ccc3cnc(CNC(=O)c4ccc5c(c4)S(=O)(=O)CCOC5)cc3n2)n1 | 6.04 |
| CO[C@@H](C)CN(C)c1cccc(-c2ccc3cnc(CNC(=O)c4ccc5c(c4)S(=O)(=O)CCOC5)cc3n2)n1 | 6.47 |
| O=C(NCc1cc2nc(N3CCOc4cc(F)c(C(F)F)nc43)ccc2cn1)c1ccc2c(c1)S(=O)(=O)CCOC2 | 6.15 |
| COc1cccc2c1CCCN2c1ccc2cnc(CNC(=O)c3cnc4c(c3)S(=O)(=O)[C@@H](C)COC4)cc2n1 | 7.07 |
| O=C(NCc1cc2nc(-c3cccc(OC(F)F)n3)ccc2cn1)c1ccc2c(c1)S(=O)(=O)CCOC2 | 6.30 |
| Cc1cc2c(-c3ccc4cnc(CNC(=O)c5ccc6c(c5)S(=O)(=O)CCOC6)cc4n3)cccc2n1C | 6.98 |
| O=C(NCc1cc2nc(-c3cccc([C@H]4CC4(F)F)c3)ccc2cn1)c1ccc2c(c1)S(=O)(=O)CCOC2 | 5.86 |
| CN(c1cnc2c(c1)OCCN2c1ccc2cnc(CNC(=O)c3ccc4c(c3)S(=O)(=O)CCOC4)cc2n1)C1CC1 | 7.36 |
| O=C(NCc1cc2nc(-c3cccc(N4CCOCC4)n3)ccc2cn1)c1ccc2c(c1)S(=O)(=O)CCOC2 | 6.86 |
| O=C(NCc1cc2nc(-c3cccc(OCC4CC4)c3)ccc2cn1)c1ccc2c(c1)S(=O)(=O)CCOC2 | 5.86 |
| O=C(NCc1cc2nc(-c3ccc(F)c(OC(F)F)n3)ccc2cn1)c1ccc2c(c1)S(=O)(=O)CCOC2 | 6.42 |
| C[C@@H]1CN(c2cncc(-c3ccc4cnc(CNC(=O)c5ccc(C(F)F)c(S(C)(=O)=O)c5)cc4n3)n2)C[C@H](C)O1 | 6.58 |
| O=C(NCc1cc2nc(N3CCOc4nc(C(F)F)ccc43)ccc2cn1)c1ccc2c(c1)S(=O)(=O)CCOC2 | 5.34 |

* * *

Ratio* (BRG1 IC50 (μM) divided by BRM IC50 (μM)) values, listed per item
- target-desc: BRM (Homo sapiens, UniProt P51531)
- Construct: made in house; host or cells: High Five insect cells
- Sequence (P51531 whole entry): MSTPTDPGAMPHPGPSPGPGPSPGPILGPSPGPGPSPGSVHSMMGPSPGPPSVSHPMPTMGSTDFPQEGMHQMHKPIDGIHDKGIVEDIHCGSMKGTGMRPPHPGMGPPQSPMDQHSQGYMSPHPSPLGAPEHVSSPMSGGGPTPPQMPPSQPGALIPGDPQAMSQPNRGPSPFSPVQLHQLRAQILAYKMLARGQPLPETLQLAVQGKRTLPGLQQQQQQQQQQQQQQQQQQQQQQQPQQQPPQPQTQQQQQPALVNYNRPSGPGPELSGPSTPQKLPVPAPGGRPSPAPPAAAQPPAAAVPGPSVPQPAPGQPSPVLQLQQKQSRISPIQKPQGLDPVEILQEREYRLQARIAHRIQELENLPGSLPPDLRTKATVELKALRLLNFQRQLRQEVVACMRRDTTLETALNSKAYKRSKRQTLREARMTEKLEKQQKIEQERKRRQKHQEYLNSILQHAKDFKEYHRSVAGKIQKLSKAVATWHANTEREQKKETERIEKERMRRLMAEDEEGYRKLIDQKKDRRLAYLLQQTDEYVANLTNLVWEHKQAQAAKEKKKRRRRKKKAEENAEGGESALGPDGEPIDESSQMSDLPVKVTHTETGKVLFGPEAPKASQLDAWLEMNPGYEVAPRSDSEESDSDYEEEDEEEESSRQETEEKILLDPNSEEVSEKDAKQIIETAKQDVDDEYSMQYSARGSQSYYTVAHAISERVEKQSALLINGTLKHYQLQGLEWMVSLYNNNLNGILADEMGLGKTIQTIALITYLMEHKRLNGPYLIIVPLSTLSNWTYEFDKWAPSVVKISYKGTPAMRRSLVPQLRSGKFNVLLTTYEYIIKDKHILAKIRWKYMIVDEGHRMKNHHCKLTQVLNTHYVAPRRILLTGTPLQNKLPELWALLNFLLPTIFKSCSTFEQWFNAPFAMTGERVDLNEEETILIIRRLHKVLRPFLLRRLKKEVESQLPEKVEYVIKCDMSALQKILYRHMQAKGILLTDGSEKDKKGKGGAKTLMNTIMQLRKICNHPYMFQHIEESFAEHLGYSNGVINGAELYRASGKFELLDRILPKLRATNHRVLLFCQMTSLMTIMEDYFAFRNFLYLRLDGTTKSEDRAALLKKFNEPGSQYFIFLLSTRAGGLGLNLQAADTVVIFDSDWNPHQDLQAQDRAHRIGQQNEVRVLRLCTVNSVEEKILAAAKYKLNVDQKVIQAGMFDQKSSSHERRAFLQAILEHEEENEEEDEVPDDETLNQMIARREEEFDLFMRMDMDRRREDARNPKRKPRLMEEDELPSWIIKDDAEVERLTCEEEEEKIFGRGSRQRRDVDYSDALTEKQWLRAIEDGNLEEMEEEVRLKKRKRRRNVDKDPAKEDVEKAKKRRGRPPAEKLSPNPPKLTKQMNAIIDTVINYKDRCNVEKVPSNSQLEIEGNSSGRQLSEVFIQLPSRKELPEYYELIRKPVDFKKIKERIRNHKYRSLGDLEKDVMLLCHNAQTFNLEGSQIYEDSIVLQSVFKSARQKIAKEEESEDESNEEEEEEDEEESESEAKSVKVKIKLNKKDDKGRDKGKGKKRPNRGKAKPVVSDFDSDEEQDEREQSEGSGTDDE
- protocol: ATPase catalytic activity of BRM, ADP-Glo in vitro biochemical assay
- test-context: selectivity ratio BRG1 IC50 / BRM IC50
observation-type: Ratio* (BRG1 IC50 (μM) divided by BRM IC50 (μM))

| structure-string | target-desc | test-value |
| --- | --- | --- |
| CS(=O)(=O)c1cc(C(=O)NCc2cc3nc(-c4cccc(N5CC[C@@H]6OCC[C@H]6C5)n4)ccc3cn2)ccc1Cl | BRM (Homo sapiens, UniProt P51531) | 11.24 |
| C[C@@H]1CN(c2cc(-c3ccc4cnc(CNC(=O)c5ccc6c(c5)S(=O)(=O)CCOC6)cc4n3)ccn2)C[C@H](C)O1 | BRM (Homo sapiens, UniProt P51531) | 9.74 |
| COCCN(C)c1cccc(-c2ccc3cnc(CNC(=O)c4ccc(C(F)F)c(S(C)(=O)=O)c4)cc3n2)n1 | BRM (Homo sapiens, UniProt P51531) | 19.51 |
| O=C(NCc1cc2nc(-c3cccc(OC4COC4)c3)ccc2cn1)c1ccc2c(c1)S(=O)(=O)CCOC2 | BRM (Homo sapiens, UniProt P51531) | 11.06 |
| C[C@@H]1CN(c2cccc(-c3ccc4cnc(CNC(=O)c5ccc6c(c5)S(=O)(=O)CCOC6)cc4n3)c2)C[C@H](C)O1 | BRM (Homo sapiens, UniProt P51531) | 13.71 |
| CN(C)S(=O)(=O)c1cc(C(=O)NCc2cc3nc(-c4cncc(C5CC5)n4)ccc3cn2)ccc1Cl | BRM (Homo sapiens, UniProt P51531) | 17.58 |
| CC(=O)N1CCOc2c(-c3ccc4cnc(CNC(=O)c5ccc6c(c5)S(=O)(=O)CCOC6)cc4n3)cccc21 | BRM (Homo sapiens, UniProt P51531) | 3.75 |

* * *

- target-desc: BRM (Homo sapiens, UniProt P51531)
- Construct: made in house; host or cells: High Five insect cells
- protocol: ATPase catalytic activity of BRM, ADP-Glo in vitro biochemical assay
- test-context: ADP-Glo ATPase assay, 30 nM BRM, 400 μM ATP
pIC50: −log10 of the molar value.

| compound | target-desc | pIC50 |
| --- | --- | --- |
| O=C(NCc1cc2nc(-c3ccc4c(n3)CN(C3CC3)CC4)ccc2cn1)c1ccc2c(c1)S(=O)(=O)CCOC2 [Compound 788] | BRM (Homo sapiens, UniProt P51531) | 6.21 |
| O=C(NCc1cc2nc(N3CCc4cnccc4C3)ccc2cn1)c1ccc2c(c1)S(=O)(=O)CCOC2 [Compound 87] | BRM (Homo sapiens, UniProt P51531) | 6.16 |
| COc1nn([C@H]2C[C@@H](F)C2)cc1-c1ccc2cnc(CNC(=O)c3ccc4c(c3)S(=O)(=O)CCOC4)cc2c1 [Compound 134] | BRM (Homo sapiens, UniProt P51531) | 6.73 |
| CS(=O)(=O)c1cc(C(=O)NCc2cc3nc(-c4cncc(C5CC5)n4)ccc3cn2)ccc1C(F)F [Compound 231] | BRM (Homo sapiens, UniProt P51531) | 6.89 |
| COCCN1CCCc2c(-c3ccc4cnc(CNC(=O)c5ccc6c(c5)S(=O)(=O)CCOC6)cc4n3)cccc21 [Compound 84] | BRM (Homo sapiens, UniProt P51531) | 6.92 |
| CN1CCN(c2cccc(-c3ccc4cnc(CNC(=O)c5ccc6c(c5)S(=O)(=O)CCOC6)cc4n3)n2)CC1 [Compound 144] | BRM (Homo sapiens, UniProt P51531) | 6.83 |
| Cn1ccc2c(-c3ccc4cnc(CNC(=O)c5ccc6c(c5)S(=O)(=O)CCOC6)cc4n3)cccc21 [Compound 245] | BRM (Homo sapiens, UniProt P51531) | 7.73 |
| O=C(NCc1cc2nc(N3CCOc4cc(C5CC5)c(F)c(F)c43)ccc2cn1)c1ccc2c(c1)S(=O)(=O)CCOC2 [Compound 805] | BRM (Homo sapiens, UniProt P51531) | 7.58 |
| COCCCN(C)c1cccc(-c2ccc3cnc(CNC(=O)c4ccc5c(c4)S(=O)(=O)CCOC5)cc3n2)n1 [Compound 125] | BRM (Homo sapiens, UniProt P51531) | 7.74 |
| COc1nn([C@H]2C[C@@H](F)C2)cc1-c1ccc2cnc(CNC(=O)c3ccc4c(c3)S(=O)(=O)CCOC4)cc2n1 [Compound 148] | BRM (Homo sapiens, UniProt P51531) | 6.34 |
| CCN(CCOC)c1cccc(-c2ccc3cnc(CNC(=O)c4ccc5c(c4)S(=O)(=O)CCOC5)cc3n2)n1 [Compound 73] | BRM (Homo sapiens, UniProt P51531) | 8.17 |
| O=C(NCc1cc2nc(-c3ccc4c(n3)N(CC(F)F)CC4)ccc2cn1)c1ccc2c(c1)S(=O)(=O)CCOC2 [Compound 119] | BRM (Homo sapiens, UniProt P51531) | 7.40 |
| C[C@@H]1CN(c2cccc(-c3ccc4cnc(CNC(=O)c5cnc(C(F)F)c(S(C)(=O)=O)c5)cc4n3)n2)C[C@H](C)O1 [Compound 132] | BRM (Homo sapiens, UniProt P51531) | 7.90 |
| C[C@H]1COCc2ccc(C(=O)NCc3cc4nc(-c5cccc(N6C[C@H]7COC[C@H]7C6)n5)ccc4cn3)cc2S1(=O)=O [Compound 709] | BRM (Homo sapiens, UniProt P51531) | 7.42 |

Data origin, for the record: patent US20230416248A1
